tested on: HepG2; test: Cytotoxicity data HepG2 CC20 (uM); assay type: functional
Reported CC20 values for a set of compounds
Return type: number; implicit unit µM.

The cases that follow already have their CC20 on record.
[
  {
    "compound": "N=C(N)Nc1ccc(-c2ccc(-c3ccc(N=C(N)N)c(Cl)c3)o2)cc1Cl",
    "reportedMetric": "CC20",
    "unitTag": "µM",
    "recordedMeasurement": 13.5
  },
  {
    "compound": "CC(C)C(NC(=O)Cc1cccc2ccccc12)C(=O)Nc1cccc(C#N)c1 (stereo not drawn)",
    "reportedMetric": "CC20",
    "unitTag": "µM",
    "recordedMeasurement": 14
  },
  {
    "compound": "Nc1ccc(C(=O)Nc2ccc(-c3nc4ccccc4o3)cc2)cc1",
    "reportedMetric": "CC20",
    "unitTag": "µM",
    "recordedMeasurement": 18.2
  },
  {
    "compound": "CS(=O)(=O)c1ccc(C(=O)N(CC2CCCO2)c2nc3ccccc3s2)cc1[N+](=O)[O-] (stereo not drawn)",
    "reportedMetric": "CC20",
    "unitTag": "µM",
    "recordedMeasurement": 6.94
  },
  {
    "compound": "COc1cccc2c(C)nc(N=C(N)N)nc12",
    "reportedMetric": "CC20",
    "unitTag": "µM",
    "recordedMeasurement": 8.38
  },
  {
    "compound": "O=C(c1ccc(F)cc1)N(CCNc1ccccc1)c1ccccc1",
    "reportedMetric": "CC20",
    "unitTag": "µM",
    "recordedMeasurement": 18.5
  }
]

Okay, next one:
Task item: Which CC20 value belongs to O=C(Nc1ccccc1)c1ccc(-c2cc3ccncc3cc2OC2CCNCC2)s1 ?
Reply: 3.65
